# System Name: HIV broadly neutralizing antibody 2G12
# Method Description: radiolabelled glycopeptide with 2G12 in solution, protein G bead capture, scintillation counting
Primed or numbered codes have the meaning given here. Where no end group is shown, it is not given here. [ ]: non-standard residue; d: D form. The star is where a group is joined. Hpra′ = its azide, alkyne or alkene has reacted where a group follows in round brackets; Man9″ = Man9 glycan attached to Hpg by CuAAC click with Man9-azide; Man9(3) = Man9-azide click-glycosylated onto Hpg; For = O=C*
For each of the binders below, state its Fmax.
# number only, unit % dropped from output

Which Fmax reading was recorded for the binder For-[Hpra′](Man9(3))VLNDGRRIVQ[Hpra′](Man9(3))SCELP[Hpra′](Man9(3))VRRSGSGSLGHHHHHHRDYKDDDDK [glycopeptide 10F5-Δ11] ?
17

Please do the same for glycopeptide 10F12-C2,21S (peptide) peptide: For-[Hpra′](Man9″)SYVTVIPA[Hpra′](Man9″)N[Hpra′](Man9″)PEARLGIVSH[Hpra′](Man9″)PGIRRGKALYGSGSLGHHHHHHRDYKDDDDK as well.
90

Then this binder: glycopeptide 10F5 (Fixed library, round 10) (cysteine pairing not given here) peptide: For-[Hpra′](Man9(3))SPHLPVLLCK[Hpra′](Man9(3))VLNDGRRIVQ[Hpra′](Man9(3))SCELP[Hpra′](Man9(3))VRRSGSGSLGHHHHHHRDYKDDDDK
93

Next record, please: glycopeptide 10F5-C10,25S (peptide) peptide: For-[Hpra′](Man9(3))SPHLPVLLSK[Hpra′](Man9(3))VLNDGRRIVQ[Hpra′](Man9(3))SSELP[Hpra′](Man9(3))VRRSGSGSLGHHHHHHRDYKDDDDK
94
